# tested_on: T1, human PCSK9 (human, UniProt Q8NBP7 31-692)
# T1 construct: also called hPCSK9; huPCSK9
# assay_name: PCSK9:LDLR FRET, competition
readout_name: IC50 (nM)
Quick reminder: number only, in nM, skip the unit.

// below: answered binders
binder="PCSK9-PKE2 tandem 4472_A11 (designed binder, In the real molecule the two parts given here are one polypeptide, joined by the undisclosed linker B. They are written as two chains only because the linker has no letters., not shown: Linker 'B' joining ...NYRTE of the PCSK9 domain to GVSDV... of the PKE2 domain) PCSK9 domain: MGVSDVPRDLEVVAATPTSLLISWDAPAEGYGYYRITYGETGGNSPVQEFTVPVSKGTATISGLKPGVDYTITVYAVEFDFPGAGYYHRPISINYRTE PKE2 domain: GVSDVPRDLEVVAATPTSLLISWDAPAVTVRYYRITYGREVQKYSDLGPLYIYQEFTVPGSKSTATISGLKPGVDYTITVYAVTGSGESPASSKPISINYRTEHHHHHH" readout_name=IC50 assay_result=1.4
binder="PCSK9-PKE2 tandem 4472_A04 (designed binder, not shown: The inter-domain linker; In the real molecule the two parts below are one polypeptide joined by this linker) PCSK9 domain: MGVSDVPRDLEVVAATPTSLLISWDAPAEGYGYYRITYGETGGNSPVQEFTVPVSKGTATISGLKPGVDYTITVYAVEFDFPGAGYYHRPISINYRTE PKE2 domain: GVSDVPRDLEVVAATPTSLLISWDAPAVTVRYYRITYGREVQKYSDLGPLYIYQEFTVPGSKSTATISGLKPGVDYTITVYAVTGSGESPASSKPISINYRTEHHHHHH" readout_name=IC50 assay_result=1.1

Q. # get_value(readout='IC50', item= PCSK9-PKE2 tandem 4472_F08 (designed binder, The real molecule is ONE polypeptide: PCSK9 domain, undisclosed linker F, PKE2 domain. It is given here as two chains because the linker letters are unknown., not shown: The inter-domain linker) PCSK9 domain: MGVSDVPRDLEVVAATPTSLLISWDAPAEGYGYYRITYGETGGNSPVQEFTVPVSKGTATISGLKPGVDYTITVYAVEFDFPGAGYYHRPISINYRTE PKE2 domain: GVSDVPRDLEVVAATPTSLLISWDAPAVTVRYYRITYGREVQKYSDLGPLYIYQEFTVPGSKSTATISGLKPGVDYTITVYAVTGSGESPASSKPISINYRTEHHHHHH )
A. 2.5

Q. # get_value(readout='IC50', item= PCSK9-PKE2 tandem 4472_B11 (designed binder, not shown: small tags and cut ends, The two parts are one polypeptide in the real molecule, joined by the undisclosed linker L; they are given here as separate chains.) PCSK9 10Fn3: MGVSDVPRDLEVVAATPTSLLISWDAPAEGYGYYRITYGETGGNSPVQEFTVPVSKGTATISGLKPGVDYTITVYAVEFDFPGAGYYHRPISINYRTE PKE2 10Fn3: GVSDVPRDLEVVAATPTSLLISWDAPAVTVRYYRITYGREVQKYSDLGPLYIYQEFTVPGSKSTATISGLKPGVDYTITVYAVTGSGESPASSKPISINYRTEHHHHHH )
A. 2

Q. # get_value(readout='IC50', item= PCSK9-PKE2 tandem 4472_D06 (designed binder, not shown: The inter-domain linker; In the real molecule the two parts below are one polypeptide joined by this linker) PCSK9 domain: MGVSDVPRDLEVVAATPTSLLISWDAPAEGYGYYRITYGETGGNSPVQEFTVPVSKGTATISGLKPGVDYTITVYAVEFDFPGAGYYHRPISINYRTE PKE2 domain: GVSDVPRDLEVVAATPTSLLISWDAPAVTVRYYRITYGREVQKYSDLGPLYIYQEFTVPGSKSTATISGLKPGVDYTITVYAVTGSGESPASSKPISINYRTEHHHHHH )
A. 1.8

Q. # get_value(readout='IC50', item= PCSK9-PKE2 tandem 4472_H09 (designed binder, The real molecule is ONE polypeptide: PCSK9 domain, undisclosed linker C, PKE2 domain. It is given here as two chains because the linker letters are unknown., not shown: The inter-domain linker) PCSK9 domain: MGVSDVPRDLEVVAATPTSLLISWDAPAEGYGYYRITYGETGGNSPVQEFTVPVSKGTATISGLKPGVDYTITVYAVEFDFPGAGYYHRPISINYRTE PKE2 domain: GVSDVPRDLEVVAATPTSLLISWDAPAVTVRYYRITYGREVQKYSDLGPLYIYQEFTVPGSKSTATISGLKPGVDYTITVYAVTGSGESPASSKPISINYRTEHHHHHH )
A. 3

Q. # get_value(readout='IC50', item= PCSK9 Adnectin 2382_D09 (designed binder) MGVSDVPRDLEVVAATPTSLLISWDAPAEGYGYYRITYGETGGNSPVQEFTVPVSKGTATISGLKPGVDYTITVYAVEFDFPGAGYYHRPISINYRT )
A. 2.3

Q. # get_value(readout='IC50', item= PCSK9-PKE2 tandem 4472_G10 (designed binder, The real molecule is ONE polypeptide: PCSK9 domain, undisclosed linker H (a code letter), PKE2 domain. It is given here as two chains because the linker letters are unknown., not shown: The inter-domain linker) PCSK9 domain: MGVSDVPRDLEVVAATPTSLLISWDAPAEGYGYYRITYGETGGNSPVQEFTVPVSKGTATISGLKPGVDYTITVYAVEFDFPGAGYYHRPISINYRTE PKE2 domain: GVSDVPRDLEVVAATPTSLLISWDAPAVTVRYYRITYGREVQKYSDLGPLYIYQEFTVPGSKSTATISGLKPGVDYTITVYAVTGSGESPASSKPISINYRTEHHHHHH )
A. 2.4

Q. # get_value(readout='IC50', item= PCSK9-PKE2 tandem 4472_E06 (designed binder, The real molecule is ONE polypeptide: PCSK9 domain, undisclosed linker I (a code letter), PKE2 domain. It is given here as two chains because the linker letters are unknown., also called 4427_E06; not shown: The inter-domain linker) PCSK9 domain: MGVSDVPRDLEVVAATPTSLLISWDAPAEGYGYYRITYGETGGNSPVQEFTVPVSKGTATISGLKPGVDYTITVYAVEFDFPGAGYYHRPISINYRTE PKE2 domain: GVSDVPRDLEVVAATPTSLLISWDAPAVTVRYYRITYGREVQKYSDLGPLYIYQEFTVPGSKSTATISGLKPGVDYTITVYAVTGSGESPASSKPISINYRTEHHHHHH )
A. 1.6

Q. # get_value(readout='IC50', item= PCSK9-PKE2 tandem 4472_E04 (designed binder, not shown: small tags and cut ends, The two parts are one polypeptide in the real molecule, joined by the undisclosed linker Q; they are given here as separate chains.) PCSK9 10Fn3: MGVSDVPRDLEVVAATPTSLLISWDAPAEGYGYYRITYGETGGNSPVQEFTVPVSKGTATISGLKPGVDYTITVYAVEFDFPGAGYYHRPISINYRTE PKE2 10Fn3: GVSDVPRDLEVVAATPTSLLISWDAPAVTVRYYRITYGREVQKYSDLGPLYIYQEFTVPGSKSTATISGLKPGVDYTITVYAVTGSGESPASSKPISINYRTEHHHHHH )
A. 2

Q. # get_value(readout='IC50', item= PCSK9-PKE2 tandem 4472_A06 (designed binder, not shown: small tags and cut ends, The two parts are one polypeptide in the real molecule, joined by the undisclosed linker M; they are given here as separate chains.) PCSK9 10Fn3: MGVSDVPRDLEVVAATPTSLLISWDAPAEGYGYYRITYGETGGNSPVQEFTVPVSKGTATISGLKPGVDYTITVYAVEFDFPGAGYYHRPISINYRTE PKE2 10Fn3: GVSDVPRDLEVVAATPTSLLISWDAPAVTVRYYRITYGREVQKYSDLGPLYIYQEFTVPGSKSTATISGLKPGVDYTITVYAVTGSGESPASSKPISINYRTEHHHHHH )
A. 1.6

The reported numbers originate from patent US20200048328A1.
